# TESTED_SYSTEM: PolQ ATPase enzyme (1-894) (Homo sapiens (Human))
# PROCEDURE_SUMMARY: Polθ ATPase enzymatic assay (0.5 nM enzyme concentration), ADP-Glo
# Type: biochemical
# EXPERIMENTAL_SETUP: 0.5 nM PolQ ATPase enzyme (1-894); average IC50
// reported IC50 for each item listed

{"columns": ["COMPOUND", "TESTED_SYSTEM", "IC50"],
 "data": [
  ["CC#C[C@H]1CC1c1nnc(NC(=O)c2cnc(-n3ccc(C)cc3=O)cc2-c2cc(C(F)F)ncc2OC)s1 (mixture of isomers)", "PolQ ATPase enzyme (1-894) (Homo sapiens (Human))", "< 0.25 nM"],
  ["COc1cnc(C(F)F)cc1-c1cc(CC2CCOCC2)ncc1C(=O)Nc1nnc(C#CC2CC2)s1", "PolQ ATPase enzyme (1-894) (Homo sapiens (Human))", "6.4 nM"],
  ["COc1cnc(C(F)F)cc1-c1cc(N2CC3CC3CC2=O)ncc1C(=O)Nc1nnc(C#CC2CC2)s1 (racemic)", "PolQ ATPase enzyme (1-894) (Homo sapiens (Human))", "< 0.25 nM"],
  ["COc1cnc(C(F)F)cc1-c1cc(C#CCN2C(=O)CCC2=O)ncc1C(=O)Nc1nnc(C#CC2CC2)s1", "PolQ ATPase enzyme (1-894) (Homo sapiens (Human))", "> 100 nM"]
]}

----------
# TESTED_SYSTEM: PolQ ATPase enzyme (1-894) (Homo sapiens (Human), UniProt O75417)
# Sequence (O75417 1-894): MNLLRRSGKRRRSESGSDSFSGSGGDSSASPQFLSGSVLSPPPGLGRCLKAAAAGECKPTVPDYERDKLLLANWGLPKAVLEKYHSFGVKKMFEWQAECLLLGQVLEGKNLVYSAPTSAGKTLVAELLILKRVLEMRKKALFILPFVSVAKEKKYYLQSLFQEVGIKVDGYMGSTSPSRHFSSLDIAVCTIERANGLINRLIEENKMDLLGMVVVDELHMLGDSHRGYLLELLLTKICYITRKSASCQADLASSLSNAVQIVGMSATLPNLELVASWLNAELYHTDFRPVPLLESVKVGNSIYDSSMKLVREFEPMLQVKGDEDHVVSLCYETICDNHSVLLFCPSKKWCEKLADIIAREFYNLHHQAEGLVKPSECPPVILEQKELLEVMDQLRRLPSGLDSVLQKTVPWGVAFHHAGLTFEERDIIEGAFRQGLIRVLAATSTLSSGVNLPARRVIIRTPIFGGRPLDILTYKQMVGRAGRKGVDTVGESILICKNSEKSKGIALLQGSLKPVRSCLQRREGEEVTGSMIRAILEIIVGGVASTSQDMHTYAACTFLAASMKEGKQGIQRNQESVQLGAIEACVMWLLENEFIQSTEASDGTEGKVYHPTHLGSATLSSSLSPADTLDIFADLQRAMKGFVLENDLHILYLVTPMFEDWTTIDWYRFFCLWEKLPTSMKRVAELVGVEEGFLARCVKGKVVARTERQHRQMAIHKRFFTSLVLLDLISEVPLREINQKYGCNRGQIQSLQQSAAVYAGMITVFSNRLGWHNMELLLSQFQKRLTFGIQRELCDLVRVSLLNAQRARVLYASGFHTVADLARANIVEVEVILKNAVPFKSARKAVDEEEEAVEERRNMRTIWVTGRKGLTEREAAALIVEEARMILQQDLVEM
# PROCEDURE_SUMMARY: Polθ ATPase enzymatic assay (0.5 nM enzyme concentration), ADP-Glo
# Type: biochemical
# EXPERIMENTAL_SETUP: 0.5 nM PolQ ATPase enzyme (1-894); average IC50

{"columns": ["COMPOUND", "IC50"],
 "data": [
  ["CC#C[C@H]1CC1c1nnc(NC(=O)c2cnc(-n3cccc(F)c3=O)cc2-c2cc(C(F)F)ncc2OC)s1 (mixture of isomers)", "< 0.25 nM"],
  ["C#C[C@H]1C[C@@H]1c1nnc(NC(=O)c2cnc(-n3cc(C)ccc3=O)cc2-c2cc(C(F)F)ncc2OC)s1", "< 0.25 nM"],
  ["COc1cnc(C(F)F)cc1-c1cc(N2CCC(C(C)(C)C)CC2=O)ncc1C(=O)Nc1nnc(C#CC2CC2)s1 (racemic)", "< 0.25 nM"]
]}

----------
// reported IC50 for each item listed
# TESTED_SYSTEM: PolQ ATPase enzyme (1-894) (Homo sapiens (Human))
# PROCEDURE_SUMMARY: Polθ ATPase enzymatic assay (0.5 nM enzyme concentration), ADP-Glo
# Assay type: biochemical
# EXPERIMENTAL_SETUP: 0.5 nM PolQ ATPase enzyme (1-894); average IC50

{"columns": ["MOLECULE", "IC50"],
 "data": [
  ["COc1cnc(C(F)F)cc1-c1cc(C#CCN2CCNC2=O)ncc1C(=O)Nc1nnc(C#CC2CC2)s1", "< 0.25 nM"],
  ["COc1cncc(-c2cc(-c3cc(C(F)F)ncc3OC)c(C(=O)Nc3nnc(C#CC4CC4)s3)cn2)c1", "1.3 nM"],
  ["COc1cnc(C(F)F)cc1-c1cc(C#CCN2CCOCC2)ncc1C(=O)Nc1nnc([C@H]2C[C@@H]2C(F)(F)F)s1", "3.1 nM"],
  ["COc1cnc(C(F)F)cc1-c1cc(N2C[C@@H](C)OCC2=O)ncc1C(=O)Nc1nnc(C#CC2CC2)s1", "2.4 nM"],
  ["COc1cnc(C(F)F)cc1-c1cc(C#CCN2CCOCC2)ncc1C(=O)Nc1nnc([C@H]2C[C@@H]2C)s1 (racemic)", "4 nM"]
]}

----------
// reported IC50 for each item listed
# TESTED_SYSTEM: PolQ ATPase enzyme (1-894) (Homo sapiens (Human), UniProt O75417)
# PROCEDURE_SUMMARY: Polθ ATPase enzymatic assay (0.5 nM enzyme concentration), ADP-Glo
# Type: biochemical
# EXPERIMENTAL_SETUP: 0.5 nM PolQ ATPase enzyme (1-894); average IC50
PROPERTY_LABEL: IC50

{"columns": ["MOLECULE", "RESULT"],
 "data": [
  ["COc1ccc(-c2cc(-c3cc(C(F)F)ncc3OC)c(C(=O)Nc3nnc(C#CC4CC4)s3)cn2)c(OC)n1", "5.7 nM"],
  ["COc1cnc(C(F)F)cc1-c1cc(C#CC(C)(C)N2CC(C)(C)C2)ncc1C(=O)Nc1nnc(C#CC2CC2)s1", "1.15 nM"],
  ["COc1cnc(C(F)F)cc1-c1cc(-n2ccc(C)cc2=O)ncc1C(=O)Nc1nnc([C@H]2C[C@@H]2c2cnn(C)c2)s1 (racemic)", "0.51 nM"],
  ["C#C[C@H]1CC1c1nnc(NC(=O)c2cnc(-n3ccc(C)cc3=O)cc2-c2cc(Cl)ncc2OC)s1 (single isomer, unassigned)", "< 0.25 nM"],
  ["COc1cnc(C(F)F)cc1-c1cc(C=C=CN2CCOCC2=O)ncc1C(=O)Nc1nnc(C#CC2CC2)s1", "51 nM"],
  ["COc1cnc(C(F)F)cc1-c1cc(C#CCN2CCCC2)ncc1C(=O)Nc1nnc(C#CC2CC2)s1", "0.6 nM"],
  ["COc1cnc(C(F)F)cc1-c1cc(C#CCN2CCCC2=O)ncc1C(=O)Nc1nnc([C@H]2C[C@@H]2C)s1 (racemic)", "0.81 nM"],
  ["COc1cnc(C(F)F)cc1-c1cc(C#CCC(C)(C)O)ncc1C(=O)Nc1nnc([C@H]2C[C@@H]2C)s1 (racemic)", "3.2 nM"]
]}
